test: Clearance of 99m-Tc-IMP-192 in BALB/c mice; type: in vivo; conditions: BALB/c, mouse; Kidney, 1 h
Where a SMILES comes first, the peptide text is derived from it. Side-chain parts run from the residue outwards. The star is where a group is joined. DTPA = O=C(O)CN(CCN(CC(=O)O)CC(=O)O)CCN(CC(=O)O)CC(=O)*; X1 = NC(=S)NN=CC(=O)*
outcome-measure: tissue uptake at 1 h (%ID/g)
Give the value, in units of %ID/g, as a plain number.

Enquiry: Fill in tissue uptake at 1 h for record CC(=O)N[C@@H](CCCCNC(=O)CN(CCN(CCN(CC(=O)O)CC(=O)O)CC(=O)O)CC(=O)O)C(=O)N[C@@H](Cc1ccc(O)cc1)C(=O)N[C@@H](CCCCNC(=O)CN(CCN(CCN(CC(=O)O)CC(=O)O)CC(=O)O)CC(=O)O)C(=O)N[C@@H](CCCCNC(=O)[C@H](CS)NC(=O)C=NNC(N)=S)C(N)=O [IMP 192] (Ac-K(DTPA)YK(DTPA)K([Cys-X1])-NH2)
Return: 4.16
